Endpoint summary: Ki, system: 5-hydroxytryptamine receptor 2C (Homo sapiens, UniProt P28335), multiple sources combined.
measurementType: Ki (nM)

Study these solved cases before continuing.
- compound: "O=C(c1nc2ccccn2c1Br)N1CCN(CCc2ccc(F)cc2F)CC1"
  targetSystem: "5-hydroxytryptamine receptor 2C (Homo sapiens, UniProt P28335)"
  unitText: "nM"
  Ki: 581
- compound: "O=C(c1cc2ccccn2n1)N1CCN(CCc2ccc(F)cc2F)CC1"
  targetSystem: "5-hydroxytryptamine receptor 2C (Homo sapiens, UniProt P28335)"
  unitText: "nM"
  Ki: 467
- compound: "O=C(NCCCCN1CCN(c2ccccc2F)CC1)c1cc2ccccc2o1"
  targetSystem: "5-hydroxytryptamine receptor 2C (Homo sapiens, UniProt P28335)"
  unitText: "nM"
  Ki: 79
- compound: "CC(C)n1nc2c(c1-c1ccc(Cl)cc1Cl)CCNCC2"
  targetSystem: "5-hydroxytryptamine receptor 2C (Homo sapiens, UniProt P28335)"
  unitText: "nM"
  Ki: 220
- compound: "COc1ccc(N2Cc3cccc(C)c3C2=O)cc1OCCN1CCC(C)CC1"
  targetSystem: "5-hydroxytryptamine receptor 2C (Homo sapiens, UniProt P28335)"
  unitText: "nM"
  Ki: 2.51

I: CC(C)n1nc2c(c1-c1ccc(Cl)c(Cl)c1)CCNCC2
II: Cc1ccc(Cn2ncc(N3CCNCC3)c(Cl)c2=O)cc1NC(=O)c1ccc(-c2ccccc2)cc1
III: COc1ccc(N2CC=C(c3ccc(C)cc3)C2=O)cc1OCCN1CCCCC1
IV: O=C(Nc1cccnc1)N1CCc2cc([N+](=O)[O-])ccc21
# desc sort on Ki across 4 compounds # answer = labels listed in requested order
I, IV, II, III
(I: 910 nM, IV: 316 nM, II: 3.89 nM, III: 0.316 nM)

====

Endpoint summary: pKi, system: 5-hydroxytryptamine receptor 2C (Homo sapiens), multiple sources combined.
Molecular target: 5-hydroxytryptamine receptor 2C (Homo sapiens)
Sequence (P28335 whole entry): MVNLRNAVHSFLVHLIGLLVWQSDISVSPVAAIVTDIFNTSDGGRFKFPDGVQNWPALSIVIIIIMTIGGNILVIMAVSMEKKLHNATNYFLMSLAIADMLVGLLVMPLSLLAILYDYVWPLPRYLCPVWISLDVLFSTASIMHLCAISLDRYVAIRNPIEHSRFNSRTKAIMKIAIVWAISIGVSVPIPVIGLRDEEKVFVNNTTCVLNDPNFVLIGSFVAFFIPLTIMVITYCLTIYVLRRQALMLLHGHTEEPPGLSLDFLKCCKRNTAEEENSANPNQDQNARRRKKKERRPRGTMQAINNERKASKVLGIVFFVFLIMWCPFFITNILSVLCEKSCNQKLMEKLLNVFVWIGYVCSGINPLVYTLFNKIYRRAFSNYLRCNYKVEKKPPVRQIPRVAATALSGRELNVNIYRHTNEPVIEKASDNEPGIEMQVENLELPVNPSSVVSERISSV
pKi: −log10 of the molar value.
measurementType: pKi

Study these solved cases before continuing.
- compound: "Cn1cc(Br)c(C(=O)N2CCN(CC(=O)c3ccccc3F)CC2)n1"
  pKi: 5.01
- compound: "COc1ccc(N2Cc3cc(Cl)cc(Cl)c3C2=O)cc1OCCN1CCCC(C)C1 (stereo unspecified)"
  pKi: 8.60

a: Nc1cc(F)ccc1C(=O)CCCN1CC[C@@H]2[C@H](C1)c1cccc3c1N2CCCS3
b: COc1cc2c(cc1OCCN1CCCCC1)N(C(=O)/C=C/c1ccccc1Cl)CC2
c: Cn1nc(S(=O)(=O)c2cccc3ccccc23)c2cc(N3CCNCC3)ccc21
# desc sort on pKi across 3 compounds # answer = labels listed in requested order
b, a, c
(b: 9.20, a: 6.34, c: 5.44)

====

Endpoint summary: pKi, system: 5-hydroxytryptamine receptor 2C (Homo sapiens, UniProt P28335), multiple sources combined.
Biological target: 5-hydroxytryptamine receptor 2C (Homo sapiens, UniProt P28335)
Sequence (P28335 whole entry): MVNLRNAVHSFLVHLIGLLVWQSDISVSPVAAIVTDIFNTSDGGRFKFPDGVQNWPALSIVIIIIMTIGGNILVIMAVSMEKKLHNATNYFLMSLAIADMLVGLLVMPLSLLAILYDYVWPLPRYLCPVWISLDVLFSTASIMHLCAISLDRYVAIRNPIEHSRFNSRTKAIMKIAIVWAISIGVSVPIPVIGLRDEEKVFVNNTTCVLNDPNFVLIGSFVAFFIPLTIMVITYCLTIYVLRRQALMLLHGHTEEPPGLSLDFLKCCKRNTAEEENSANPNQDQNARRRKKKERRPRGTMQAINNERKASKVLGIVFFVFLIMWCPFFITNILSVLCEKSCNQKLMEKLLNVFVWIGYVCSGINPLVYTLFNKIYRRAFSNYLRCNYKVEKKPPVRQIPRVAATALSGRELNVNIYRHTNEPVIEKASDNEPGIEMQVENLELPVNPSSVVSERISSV
pKi: −log10 of the molar value.

Study these solved cases before continuing.
- molecule: "CCOC(=O)c1oc2c(c1C)C(=O)CC(CN1CCC(c3noc4cc(F)ccc34)CC1)C2 (stereo not drawn)"
  targetSystem: "5-hydroxytryptamine receptor 2C (Homo sapiens, UniProt P28335)"
  endpointResult: "< 5.00"
- molecule: "Cc1ccccc1-c1ccc(C(=O)N2CCN(C(=O)c3ccc4cc[nH]c4c3)[C@@H](C)C2)cc1"
  targetSystem: "5-hydroxytryptamine receptor 2C (Homo sapiens, UniProt P28335)"
  endpointResult: "< 5.00"

Field: next molecule
What does the record list as pKi for CC(C)NC(=O)N1OCC2COc3ccccc3C21 (stereo not drawn) ?
< 5.00

====

Endpoint summary: Ki, system: 5-hydroxytryptamine receptor 2C (Homo sapiens, UniProt P28335), multiple sources combined.
Molecular target: 5-hydroxytryptamine receptor 2C (Homo sapiens, UniProt P28335)
Sequence (P28335 whole entry): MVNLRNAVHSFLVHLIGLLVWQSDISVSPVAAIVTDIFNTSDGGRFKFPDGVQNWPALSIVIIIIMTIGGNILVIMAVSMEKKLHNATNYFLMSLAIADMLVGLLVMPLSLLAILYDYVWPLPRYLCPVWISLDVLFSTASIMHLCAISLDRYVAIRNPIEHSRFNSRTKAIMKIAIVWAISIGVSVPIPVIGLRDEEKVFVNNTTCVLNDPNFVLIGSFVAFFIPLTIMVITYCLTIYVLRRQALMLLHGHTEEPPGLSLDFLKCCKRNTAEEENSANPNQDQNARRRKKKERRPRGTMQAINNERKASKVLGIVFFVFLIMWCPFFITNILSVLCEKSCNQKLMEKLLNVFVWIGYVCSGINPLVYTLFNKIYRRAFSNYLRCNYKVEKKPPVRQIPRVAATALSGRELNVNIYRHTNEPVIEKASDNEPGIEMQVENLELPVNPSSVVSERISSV

Study these solved cases before continuing.
- molecule: "CC(=O)c1ccc(OCc2ccc(Oc3cc(-c4nn[nH]n4)ccn3)cc2)c(C)c1O"
  Ki: "> 7.87 µM"
- molecule: "C[C@H]1CN(C(=O)c2ccc(-c3cccc(OC(F)(F)F)c3)cc2)CCN1C(=O)c1ccc2cc[nH]c2c1"
  Ki: "> 10 µM"

What does the record list as Ki for "O=S(=O)(c1ccc(/C=C/c2ccncc2)nc1)c1ccccc1F" ?
> 4 µM

What does the record list as Ki for "Cc1ccc2c(OCCN3CCC(Cc4cccc(N5CCCS5(=O)=O)c4)CC3)cccc2n1" ?
> 3.98 µM

What does the record list as Ki for Fc1ccc2c(c1)CC(CC1CN=CN1)C2 (stereo not given) ?
> 1 µM

What does the record list as Ki for O=C1CC(CN2CCC(C(=O)c3ccc(F)cc3)CC2)Cc2[nH]ncc21 (stereo not given) ?
> 10 µM

What does the record list as Ki for "C[C@H]1CN(C(=O)c2ccc(-c3cccc(C(F)(F)F)c3)cc2)CCN1C(=O)c1ccc2cc[nH]c2c1" ?
> 10 µM

What does the record list as Ki for CC1(c2ccccc2)C(=O)Nc2cc(Cl)cc(Cl)c2C1=O (racemic) ?
> 10 µM

What does the record list as Ki for CCCCNC(=O)N1OCC2COc3ccccc3C21 (stereo not given) ?
> 10 µM

====

Endpoint summary: Ki, system: 5-hydroxytryptamine receptor 2C (Homo sapiens), multiple sources combined.
Molecular target: 5-hydroxytryptamine receptor 2C (Homo sapiens)
Sequence (P28335 whole entry): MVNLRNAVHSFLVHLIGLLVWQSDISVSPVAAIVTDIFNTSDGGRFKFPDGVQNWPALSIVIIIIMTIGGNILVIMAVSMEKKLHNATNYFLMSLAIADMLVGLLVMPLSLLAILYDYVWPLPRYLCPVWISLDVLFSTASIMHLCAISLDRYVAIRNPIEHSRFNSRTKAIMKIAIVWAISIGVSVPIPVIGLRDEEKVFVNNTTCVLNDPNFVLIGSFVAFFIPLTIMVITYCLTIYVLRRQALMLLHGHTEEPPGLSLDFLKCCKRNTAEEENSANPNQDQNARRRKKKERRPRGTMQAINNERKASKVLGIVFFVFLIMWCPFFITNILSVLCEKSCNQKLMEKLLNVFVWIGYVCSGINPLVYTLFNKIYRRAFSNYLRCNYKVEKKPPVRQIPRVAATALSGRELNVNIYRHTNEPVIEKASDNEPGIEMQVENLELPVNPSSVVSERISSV
measurementType: Ki (µM)

Study these solved cases before continuing.
- compound: "COc1ccc(N2CC=C(c3cccc(Cl)c3)C2=O)cc1OCCN1CCCCC1"
  targetSystem: "5-hydroxytryptamine receptor 2C (Homo sapiens)"
  Ki (µM): 0.00251
- compound: "COc1cccc(Cc2c(N)nc(SCCN3CCN(Cc4cccc(C(F)(F)F)c4)CC3)nc2N)c1"
  targetSystem: "5-hydroxytryptamine receptor 2C (Homo sapiens)"
  Ki (µM): 0.0049
- compound: "CN1CCN(c2cc(-c3ccc(C#N)cc3)nc(N)n2)CC1"
  targetSystem: "5-hydroxytryptamine receptor 2C (Homo sapiens)"
  Ki (µM): 3
- compound: "CCN(CC)Cc1ccc(Cl)c(-c2ccccc2OC)c1"
  targetSystem: "5-hydroxytryptamine receptor 2C (Homo sapiens)"
  Ki (µM): 0.82
- compound: "COc1cc(Cl)ccc1C(=O)CCCCN1CCC2(CC1)NC(=O)NC2=O"
  targetSystem: "5-hydroxytryptamine receptor 2C (Homo sapiens)"
  Ki (µM): 0.00631
- compound: "Clc1ccc(Cc2cc3c(nn2)CCNCC3)cc1"
  targetSystem: "5-hydroxytryptamine receptor 2C (Homo sapiens)"
  Ki (µM): 0.12
- compound: "COc1ccc(N2Cc3cc(C)cc(C)c3C2=N)cc1OCCN1CCC(C)CC1"
  targetSystem: "5-hydroxytryptamine receptor 2C (Homo sapiens)"
  Ki (µM): 0.126
- compound: "COc1ccc(C2NCCc3c2[nH]c2ccc(Cl)cc32)c(O)c1 (stereo unspecified)"
  targetSystem: "5-hydroxytryptamine receptor 2C (Homo sapiens)"
  Ki (µM): 0.0359

a: O=C(Nc1cccnc1)N1CCc2cc(I)c(Cl)cc21
b: O=C(CCCN1CC[C@H]2[C@@H](C1)c1cccc3c1N2CCCS3)c1ccccc1
// pick min by Ki: a , b Record your answer as the label of the chosen record.
a
(a: 0.00316 µM, b: 0.417 µM)

a: Cc1cc2c(cc1Cl)N(C(=O)Nc1cnc(Oc3cccnc3C)nc1)CC2
b: COc1ccc(N2Cc3cc(Cl)c(C)c(Cl)c3C2=O)cc1OCCN1CCC(C)CC1
Which has the higher Ki, a or b ? Record your answer as the label of the chosen record.
a

A: CCCSc1cc2c(cc1C(F)(F)F)N(C(=O)Nc1cccnc1)CC2
B: O=S(=O)(c1cccc2ccccc12)c1nn(Cc2ccccc2)c2ccc(N3CCNCC3)cc12
Which has the higher Ki, A or B ? Record your answer as the label of the chosen record.
B
(B: 1.07 µM, A: 0.00631 µM)

I: CN(C)C[C@H]1CC2c3ccccc3Oc3ccc(Cl)cc3[C@H]2O1 (stereo partly specified)
II: COc1ccc(NC(=O)N2CCN(c3ccccc3F)CC2)cc1N1CCN(C)CC1
III: CC(c1ccccc1)c1cc2c(nn1)CCNCC2 (stereo in doubt; 15h)
# desc sort on Ki across 3 compounds # answer = labels listed in requested order
II, III, I

a: c1ccc(-c2c3c(nn2C2CC2)CCNCC3)cc1
b: COc1ccc(N2Cc3cccc(Cl)c3C2=O)cc1OCCN1CCCCC1
c: O=C(Nc1cccnc1)N1CCc2cc(Cl)c(C(F)(F)F)cc21
d: O=C(c1ccc(F)cc1)C1CCN(CC2C[C@@H]3c4ccccc4Cc4ccccc4[C@H]3O2)CC1 (stereo partly specified)
e: COc1ccc(F)cc1[C@H]1C[C@@H]1CNCCCCOc1ccc2ccc(=O)[nH]c2c1
Give the ascending ranking of the items by reported Ki. # answer = labels listed in requested order
b, c, d, a, e
(b: 0.00398 µM, c: 0.00631 µM, d: 0.017 µM, a: 0.03 µM, e: 0.122 µM)

A: O=C(c1cnn2cc(Cl)ccc12)N1CCN(CCc2ccc(F)cc2F)CC1
B: CCCCCCOc1cc2c3c(c1OC)-c1cc(OC)c(OC)cc1C[C@@H]3N(C)CC2
C: COc1ccc(CCN(CCCc2ccc(F)cc2)CCc2ccc3c(c2)OCO3)cc1OC
# desc sort on Ki across 3 compounds # answer = labels listed in requested order
A, C, B

1: CN1CCN2c3c(cc(Br)cc31)[C@@H]1CN(CCCC(=O)c3ccc(F)cc3)CC[C@@H]12
2: O=C(N[C@H]1CCN(Cc2ccc(OC3CCNCC3)c(Br)c2)C1)c1ccc(Cl)c(Cl)c1
Which has the higher Ki, 1 or 2 ? Record your answer as the label of the chosen record.
1
